Assay: Lipophilicity, log P of the compound
Type: physicochemical
Conditions: octanol/water

compound	logP
COc1cc(-c2nncn2C)ccc1Nc1ncc2ccnc(NCC(C)(C)C)c2n1	3.6
COc1cc(-c2cn(C)nc2C)ccc1Nc1ncc2ccnc(NCC(C)(C)C)c2n1	4.56
COc1cc(-c2nncn2C)ccc1Nc1ncc2cc(C)nc(NCC(C)(C)C)c2n1	3.88
CCOc1cc(-c2nnc(CCN(C)C)n2C)ccc1Nc1ncc2cc(C)nc(NCC(C)(C)C)c2n1	4.75
CCOc1cc(-c2nncn2C)ccc1Nc1ncc2cc(C)nc(N[C@@H](C)C(C)(C)C)c2n1	4.61
CCOc1cc(-c2nnc3n2CCC3)ccc1Nc1ncc2cc(C)nc(NCC(C)(C)C)c2n1	4.75
COc1cc(-c2cnn(C)c2C)ccc1Nc1ncc2ccnc(NCC(C)(C)C)c2n1	4.42
CCOc1cc(-c2nncn2C)ccc1Nc1ncc2cc(C)nc(N3CC4(CCOCC4)C3)c2n1	3.08
CCOc1cc(-c2nncn2C)ccc1Nc1ncc2cc(C)nc(N3CC(C)(C)C3)c2n1	3.85

* * *

Test: Volume of distribution at steady state in rat at 2.5 mg/kg, iv by ESI-LCMS/MS analysis
Format: ADME, organism-based
Conditions: in vivo, read-out: Vdss

compound	Vd
CCOc1cc(-c2nncn2C)ccc1Nc1ncc2cc(C)nc(NCC(C)(C)C)c2n1	3.52 L/kg

* * *

Molecular target: CDK2/Cyclin A2 (Homo sapiens, UniProt P24941)
IC50 vs 1000 nM: less than gives condition met; not less than gives condition not met.

compound	assayed.system	class.label
CCOc1cc(-c2nnc(C)n2C)ccc1Nc1ncc2cc(C)nc(NCC(C)(C)C)c2n1	CDK2/Cyclin A2 (Homo sapiens, UniProt P24941)	condition met
CCOc1cc(-c2nncn2C)ccc1Nc1ncc2cc(C)nc(N3CCC3(C)C)c2n1	CDK2/Cyclin A2 (Homo sapiens, UniProt P24941)	condition not met
CCOc1cc(-c2nncn2C)ccc1Nc1ncc2cc(C)nc(N3CC(C)(C)C3)c2n1	CDK2/Cyclin A2 (Homo sapiens, UniProt P24941)	condition not met
CCOc1cc(-c2nncn2C)ccc1Nc1ncc2cc(C)nc(N[C@@H](C)C(C)(C)C)c2n1	CDK2/Cyclin A2 (Homo sapiens, UniProt P24941)	condition met
COc1cc(-c2nncn2C)ccc1Nc1ncc2ccnc(NCC(C)(C)C)c2n1	CDK2/Cyclin A2 (Homo sapiens, UniProt P24941)	condition met
COc1cc(-c2cnn(C)c2C)ccc1Nc1ncc2ccnc(NCC(C)(C)C)c2n1	CDK2/Cyclin A2 (Homo sapiens, UniProt P24941)	condition not met
COc1cc(-c2cn(C)nc2C)ccc1Nc1ncc2ccnc(NCC(C)(C)C)c2n1	CDK2/Cyclin A2 (Homo sapiens, UniProt P24941)	condition not met
CCOc1cc(-c2nncn2C)ccc1Nc1ncc2cc(C)nc(N3CC4(CCOCC4)C3)c2n1	CDK2/Cyclin A2 (Homo sapiens, UniProt P24941)	condition not met

* * *

List of pKi values.
Molecular target: CDK2/Cyclin A2 (Homo sapiens)
pKi: −log10 of the molar value.
measure: pKi

compound	numeric.result
COc1cc(-c2nncn2C)ccc1Nc1ncc2ccnc(NCC(C)(C)C)c2n1	8.10
CCOc1cc(-c2nncn2C)ccc1Nc1ncc2cc(C)nc(N[C@@H](C)C(C)(C)C)c2n1	7.11
CCOc1cc(-c2nncn2C)ccc1Nc1ncc2cc(C)nc(N3CC4(CCOCC4)C3)c2n1	5.89
COc1cc(-c2nnc3n2CCC3)ccc1Nc1ncc2cc(C)nc(NCC(C)(C)C)c2n1	6.89
COc1cc(-c2nncn2C)ccc1Nc1ncc2cc(C)nc(NCC(C)(C)C)c2n1	7.19
CCOc1cc(-c2nncn2C)ccc1Nc1ncc2cc(C)nc(N3CC(C)(C)C3)c2n1	6.09
CCOc1cc(-c2nnc(C)n2C)ccc1Nc1ncc2cc(C)nc(NCC(C)(C)C)c2n1	6.33
COc1cc(-c2cnc(C)n2C)ccc1Nc1ncc2ccnc(NCC(C)(C)C)c2n1	7.37
COc1cc(-c2cn(C)nc2C)ccc1Nc1ncc2ccnc(NCC(C)(C)C)c2n1	5.85

* * *

System: Mus musculus
Assay: Oral bioavailability in mouse at 5 mg/kg by ESI-LCMS/MS analysis
Assay type: ADME, organism-based
Details: in vivo
List of F values.

compound	assayed.system	F, %
CCOc1cc(-c2nncn2C)ccc1Nc1ncc2cc(C)nc(N3CC(C)(C)C3)c2n1	Mus musculus	75
CCOc1cc(-c2nncn2C)ccc1Nc1ncc2cc(C)nc(N[C@@H](C)C(C)(C)C)c2n1	Mus musculus	86
CCOc1cc(-c2nncn2C)ccc1Nc1ncc2cc(C)nc(NCC(C)(C)C)c2n1	Mus musculus	81
CCOc1cc(-c2nncn2C)ccc1Nc1ncc2cc(C)nc(N3CC4(CCOCC4)C3)c2n1	Mus musculus	63

* * *

Assay: AUClast in dog at 5 mg/kg, po measured after 48 hrs by ESI-LCMS/MS analysis
Type: ADME, organism-based, Canis lupus familiaris
Conditions: in vivo

compound	AUC(0-t) at 48 h
CCOc1cc(-c2nncn2C)ccc1Nc1ncc2cc(C)nc(NCC(C)(C)C)c2n1.Cl.Cl	147 µM·h

* * *

Assay: Clearance in mouse at 5 mg/kg, iv by ESI-LCMS/MS analysis
Format: ADME, organism-based
Conditions: in vivo
measure: clearance (mL/min/kg)

compound	measure	numeric.result
CCOc1cc(-c2nncn2C)ccc1Nc1ncc2cc(C)nc(N3CC4(CCOCC4)C3)c2n1	clearance	22.6
CCOc1cc(-c2nncn2C)ccc1Nc1ncc2cc(C)nc(N[C@@H](C)C(C)(C)C)c2n1	clearance	8.4
CCOc1cc(-c2nncn2C)ccc1Nc1ncc2cc(C)nc(NCC(C)(C)C)c2n1	clearance	10.9
CCOc1cc(-c2nncn2C)ccc1Nc1ncc2cc(C)nc(N3CC(C)(C)C3)c2n1	clearance	16.3

* * *

Target: Leucine-rich repeat serine/threonine-protein kinase 2 (Homo sapiens)
Sequence (Q5S007 whole entry, the tested form may be a part): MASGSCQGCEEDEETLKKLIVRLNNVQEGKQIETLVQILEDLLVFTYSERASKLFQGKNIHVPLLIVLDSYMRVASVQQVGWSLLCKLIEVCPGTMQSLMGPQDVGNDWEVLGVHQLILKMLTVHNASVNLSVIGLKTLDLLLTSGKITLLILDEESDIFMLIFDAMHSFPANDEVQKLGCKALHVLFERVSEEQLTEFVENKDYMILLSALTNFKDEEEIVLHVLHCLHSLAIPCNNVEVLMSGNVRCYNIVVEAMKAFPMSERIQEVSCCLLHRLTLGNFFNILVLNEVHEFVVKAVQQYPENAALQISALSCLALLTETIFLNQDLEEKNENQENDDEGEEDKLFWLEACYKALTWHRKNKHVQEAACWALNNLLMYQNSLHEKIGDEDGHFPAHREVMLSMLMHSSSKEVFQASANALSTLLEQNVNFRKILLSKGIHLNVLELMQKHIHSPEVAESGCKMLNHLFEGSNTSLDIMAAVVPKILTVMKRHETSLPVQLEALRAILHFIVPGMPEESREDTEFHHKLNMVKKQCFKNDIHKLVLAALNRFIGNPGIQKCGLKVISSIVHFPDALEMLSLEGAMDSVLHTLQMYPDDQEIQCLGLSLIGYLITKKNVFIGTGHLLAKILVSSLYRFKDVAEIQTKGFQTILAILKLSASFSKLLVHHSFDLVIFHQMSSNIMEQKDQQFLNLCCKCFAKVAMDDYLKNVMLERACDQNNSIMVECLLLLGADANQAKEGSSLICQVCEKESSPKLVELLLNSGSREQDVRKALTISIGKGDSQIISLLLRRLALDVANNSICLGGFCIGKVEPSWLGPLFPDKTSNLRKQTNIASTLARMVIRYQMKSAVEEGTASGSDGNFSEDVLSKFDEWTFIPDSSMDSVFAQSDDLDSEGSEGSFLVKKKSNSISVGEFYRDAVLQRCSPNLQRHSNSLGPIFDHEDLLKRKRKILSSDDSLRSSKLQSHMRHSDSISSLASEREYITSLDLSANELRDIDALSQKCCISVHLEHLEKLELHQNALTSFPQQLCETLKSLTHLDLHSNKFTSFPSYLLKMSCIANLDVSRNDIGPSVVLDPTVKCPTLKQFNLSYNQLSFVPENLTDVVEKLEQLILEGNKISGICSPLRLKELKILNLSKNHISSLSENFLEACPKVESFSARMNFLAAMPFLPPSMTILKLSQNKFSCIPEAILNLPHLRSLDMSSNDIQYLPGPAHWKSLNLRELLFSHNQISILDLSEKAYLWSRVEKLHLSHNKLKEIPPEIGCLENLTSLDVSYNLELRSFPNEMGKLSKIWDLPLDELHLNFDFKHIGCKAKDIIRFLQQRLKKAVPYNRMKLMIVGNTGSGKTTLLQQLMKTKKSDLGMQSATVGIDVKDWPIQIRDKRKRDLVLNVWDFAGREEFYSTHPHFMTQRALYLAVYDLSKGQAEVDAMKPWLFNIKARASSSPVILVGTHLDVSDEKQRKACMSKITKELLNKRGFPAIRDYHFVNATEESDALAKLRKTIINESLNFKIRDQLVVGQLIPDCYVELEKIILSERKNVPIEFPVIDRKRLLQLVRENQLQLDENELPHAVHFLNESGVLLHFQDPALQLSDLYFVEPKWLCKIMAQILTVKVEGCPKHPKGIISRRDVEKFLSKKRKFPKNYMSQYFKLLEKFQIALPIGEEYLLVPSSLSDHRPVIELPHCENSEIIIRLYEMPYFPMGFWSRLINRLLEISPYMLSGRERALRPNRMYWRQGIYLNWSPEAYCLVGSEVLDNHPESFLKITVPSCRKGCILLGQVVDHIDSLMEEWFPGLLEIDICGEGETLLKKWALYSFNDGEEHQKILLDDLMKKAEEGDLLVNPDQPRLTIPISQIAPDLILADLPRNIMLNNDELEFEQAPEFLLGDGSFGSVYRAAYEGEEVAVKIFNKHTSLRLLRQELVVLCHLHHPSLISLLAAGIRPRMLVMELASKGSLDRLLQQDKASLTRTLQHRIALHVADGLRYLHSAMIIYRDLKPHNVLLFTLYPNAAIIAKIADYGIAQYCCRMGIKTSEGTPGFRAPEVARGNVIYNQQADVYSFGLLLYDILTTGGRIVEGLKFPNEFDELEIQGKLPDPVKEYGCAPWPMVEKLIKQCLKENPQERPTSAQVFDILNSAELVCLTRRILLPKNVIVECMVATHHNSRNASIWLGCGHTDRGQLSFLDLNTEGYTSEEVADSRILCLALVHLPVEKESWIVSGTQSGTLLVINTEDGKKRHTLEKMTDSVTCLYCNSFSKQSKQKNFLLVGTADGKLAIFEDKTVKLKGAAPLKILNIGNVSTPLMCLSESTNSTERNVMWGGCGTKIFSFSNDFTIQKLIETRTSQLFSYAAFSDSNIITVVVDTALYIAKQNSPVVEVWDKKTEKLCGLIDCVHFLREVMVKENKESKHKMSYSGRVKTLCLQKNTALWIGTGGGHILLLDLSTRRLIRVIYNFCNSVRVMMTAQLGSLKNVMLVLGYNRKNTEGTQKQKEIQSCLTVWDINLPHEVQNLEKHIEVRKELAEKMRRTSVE
Experiment: Inhibition of recombinant human GST-tagged LRRK2 (970 to 2527 residues) expressed in baculovirus expression system by Z'-LYTE assay

compound	IC50, µM
CCOc1cc(-c2nncn2C)ccc1Nc1ncc2cc(C)nc(NCC(C)(C)C)c2n1	0.048

* * *

Biological target: Dual specificity protein kinase TTK (Homo sapiens, UniProt P33981)
Sequence (P33981 whole entry): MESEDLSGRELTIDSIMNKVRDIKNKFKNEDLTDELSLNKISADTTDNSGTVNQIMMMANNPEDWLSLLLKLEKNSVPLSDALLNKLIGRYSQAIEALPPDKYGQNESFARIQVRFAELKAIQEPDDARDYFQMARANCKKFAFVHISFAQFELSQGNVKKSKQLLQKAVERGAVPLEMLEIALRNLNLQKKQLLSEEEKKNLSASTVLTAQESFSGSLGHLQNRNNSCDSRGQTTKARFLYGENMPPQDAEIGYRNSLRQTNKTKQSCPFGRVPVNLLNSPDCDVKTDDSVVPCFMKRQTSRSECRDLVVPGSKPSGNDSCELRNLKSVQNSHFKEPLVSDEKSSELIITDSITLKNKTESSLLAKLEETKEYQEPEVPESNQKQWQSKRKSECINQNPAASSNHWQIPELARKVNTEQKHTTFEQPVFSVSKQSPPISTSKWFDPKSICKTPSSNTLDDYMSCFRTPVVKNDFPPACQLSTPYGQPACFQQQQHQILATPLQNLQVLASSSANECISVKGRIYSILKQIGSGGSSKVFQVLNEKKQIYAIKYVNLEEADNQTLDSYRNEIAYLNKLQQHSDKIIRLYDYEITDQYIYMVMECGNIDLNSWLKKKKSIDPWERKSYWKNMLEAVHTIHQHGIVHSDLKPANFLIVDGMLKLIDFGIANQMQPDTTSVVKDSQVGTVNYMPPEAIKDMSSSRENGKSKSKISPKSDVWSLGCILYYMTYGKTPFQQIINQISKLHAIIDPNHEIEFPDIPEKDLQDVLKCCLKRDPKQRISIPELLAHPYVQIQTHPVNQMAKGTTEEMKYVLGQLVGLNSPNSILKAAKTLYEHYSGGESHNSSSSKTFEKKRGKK
measure: Ki (nM)

compound	assayed.system	measure	numeric.result
CCOc1cc(-c2nncn2C)ccc1Nc1ncc2cc(C)nc(N3CC4(CCOCC4)C3)c2n1	Dual specificity protein kinase TTK (Homo sapiens, UniProt P33981)	Ki	0.11
COc1cc(-c2cn(C)nc2C)ccc1Nc1ncc2ccnc(NCC(C)(C)C)c2n1	Dual specificity protein kinase TTK (Homo sapiens, UniProt P33981)	Ki	24
CCOc1cc(-c2nncn2C)ccc1Nc1ncc2cc(C)nc(N3CC(C)(C)C3)c2n1	Dual specificity protein kinase TTK (Homo sapiens, UniProt P33981)	Ki	0.088
COc1cc(-c2cnc(C)n2C)ccc1Nc1ncc2ccnc(NCC(C)(C)C)c2n1	Dual specificity protein kinase TTK (Homo sapiens, UniProt P33981)	Ki	0.084

* * *

List of Cmax values.
Assay: Cmax in rat at 5 mg/kg, po by ESI-LCMS/MS analysis
Assay type: ADME, organism-based
Set-up: dose 5 mg/kg, route oral
Details: in vivo

compound	unit.symbol	Cmax
CCOc1cc(-c2nncn2C)ccc1Nc1ncc2cc(C)nc(N3CC4(CCOCC4)C3)c2n1	nM	1180
CCOc1cc(-c2nncn2C)ccc1Nc1ncc2cc(C)nc(NCC(C)(C)C)c2n1	nM	813
CCOc1cc(-c2nncn2C)ccc1Nc1ncc2cc(C)nc(N[C@@H](C)C(C)(C)C)c2n1	nM	1890
CCOc1cc(-c2nncn2C)ccc1Nc1ncc2cc(C)nc(N3CC(C)(C)C3)c2n1	nM	1420
